Reference for the values: patent US6013795A

The following compounds are listed with their measured CMC values.
Assay: surface tension of aqueous surfactant solutions and critical micelle concentration (K-12 Processor Tensiometer)
Format: physicochemical
Settings: deionized water; Table 3
Property: CMC (ppm)

>>> experimental_result("O=C(NCCOC(=O)C(F)(C(F)(F)F)C(F)(F)C(F)(F)C(F)(F)C(F)(F)C(F)(F)C(F)(F)F)c1cc[n+]([O-])cc1 (stereo not drawn)")
1000
>>> experimental_result("C[N+](C)([O-])CCCNC(=O)C(F)(C(F)(F)F)C(F)(F)C(F)(F)C(F)(F)C(F)(F)C(F)(F)C(F)(F)F (stereo not drawn)")
100
>>> experimental_result("C[N+](C)(CCO)CCCNC(=O)C(F)(C(F)(F)F)C(F)(F)C(F)(F)C(F)(F)C(F)(F)C(F)(F)C(F)(F)C(F)(F)F (stereo not drawn)")
300
>>> experimental_result("C[N+](C)(CCO)CCCNC(=O)C(F)(C(F)(F)F)C(F)(F)C(F)(F)C(F)(F)C(F)(F)C(F)(F)F (stereo not drawn)")
1000
>>> experimental_result("O=C(OCCc1cccc[n+]1[O-])C(F)(C(F)(F)F)C(F)(F)C(F)(F)C(F)(F)C(F)(F)C(F)(F)C(F)(F)C(F)(F)F (stereo not drawn)")
6000
>>> experimental_result("O=C([O-])CC[N+]1(CCCNC(=O)C(F)(C(F)(F)F)C(F)(F)C(F)(F)C(F)(F)C(F)(F)C(F)(F)C(F)(F)C(F)(F)F)CCOCC1 (stereo not drawn)")
1000
